I'd appreciate it if you could supply normalized growth values for the items below.
# Run Description: chemical genetic growth profiling, strain panel (AID 1159580);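 further: tested at 20 µM; growth read once vehicle control cultures reached saturation at 30 °C; 1 = growth at the plate median or of vehicle wells; lower values mean less growth of the strain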
# Test Parameters: S. cerevisiae deletion strains, growth OD, locus YOR136W, strain idh2, stronger effect = lower value
Out of some 5,500 compounds screened, about 2,000 (36%) were called active. About 18% were inconclusive and are not listed. This is one part of the list.
Format: numeric value only, no unit, no commentary.

[ask] Recorded normalized growth for C=C[C@@]1(C)CC(=O)[C@@]2(O)[C@](C)(O1)[C@@H](OC(C)=O)[C@@H](O)C1C(C)(C)CC[C@H](O)[C@@]12C (stereo not given in full) , please?
[reply] 0.978

[ask] Fill in the blank: the reported normalized growth of O=C(O)C1CCCNC1 (stereo not given) is ____.
[reply] 1.02

[ask] What does the data say about its normalized growth? Entry: COC[C@]12CN(C=O)C3[C@@H]4[C@H](OC)C1[C@]3(C1CC3(O)C(OC)C(O)C4(OC(C)=O)C1C3OC(=O)c1ccccc1)[C@@H](OC)C[C@H]2O (stereo not given in full)
[reply] 1.01

[ask] Recorded normalized growth for CC(=O)O[C@@H]1CC2C(C)(C)C(=O)C3OC3[C@]2(C)C2CC[C@@]3(C)[C@H](c4ccoc4)OC(=O)C4OC43[C@@]21C (stereo not given in full) , please?
[reply] 0.997

[ask] # normalized growth lookup, item CC(=O)O[C@@H]1CC2C(C)(C)[C@H](O)CC[C@]2(C)C2CC[C@@]3(C)[C@H](c4ccoc4)OC(=O)C4OC43[C@@]21C (stereo not given in full)
[reply] 0.998

[ask] Reported normalized growth, molecule COc1cc2c(cc1OC)C1(O)C(=O)c3ccc(O)c(C(=O)O)c3OC1CO2 (stereo not given) : ____
[reply] 1

[ask] Record request: normalized growth value, item CC(=O)O[C@@H]1CC2C(C)(C)[C@H](O)CC[C@]2(C)C2CC[C@@]3(C)[C@H](c4ccoc4)OC(=O)[C@H]4O[C@]43[C@@]21C (stereo not given in full)
[reply] 1.01

[ask] If you can, please state the reported normalized growth value of N[C@@H](C(=O)O)[C@@H](O)[C@H](O)[C@H](O)CO .
[reply] 1.02

[ask] Please look up its normalized growth: CC1(C)C(=O)[C@@H]2O[C@@H]2[C@@]2(C)C1C[C@@H](O)[C@]1(C)C2CC[C@@]2(C)[C@H](c3ccoc3)OC(=O)C3OC321 (stereo not given in full)
[reply] 0.975

[ask] Field request: normalized growth | item: O=C(O)C(O)C(O)C(O)C(O)C(=O)O (stereo not given)
[reply] 0.983

[ask] Any idea what normalized growth was measured for O=c1oc2ccccc2cc1O ?
[reply] 0.985

[ask] I have this molecule here, CC(C)(S)[C@@H](N)C(=O)O , and I need its recorded normalized growth.
[reply] 0.994

[ask] # query: normalized growth of entry CC(=O)O[C@H]1C[C@@H](OC(C)=O)C(C)(C)C2C[C@@H](OC(C)=O)[C@]3(C)C(CC[C@@]4(C)[C@H](c5ccoc5)OC(=O)[C@H]5O[C@]543)[C@]21C (stereo not given in full)
[reply] 0.996

[ask] Any idea what its normalized growth is? The molecule is CC(=O)O[C@H]1CC[C@@]2(C)C(C[C@@H](OC(C)=O)[C@]3(C)C2CC[C@@]2(C)[C@H](c4ccoc4)OC(=O)[C@H]4O[C@]423)C1(C)C (stereo not given in full)
[reply] 1.02

[ask] Could you tell me which normalized growth is on file for C=NC(C(=O)NC1C(=O)N2C1SC(C)(C)C2C(=O)O)c1ccccc1 (stereo not given) ?
[reply] 1.02

[ask] For the molecule NC(C(=O)O)C(O)C(=O)O (stereo not given) , what normalized growth is on record?
[reply] 1.03

[ask] Look up normalized growth: NCCCNCCSP(=O)(O)O
[reply] 0.992

[ask] Given the molecule O=C(O)C(O)C(O)C(=O)O (stereo not given) , what is its reported normalized growth?
[reply] 0.997

[ask] Reported normalized growth, molecule CC(=O)O[C@H]1C[C@@H](OC(C)=O)C(C)(C)C2C[C@@H](O)[C@]3(C)C(CC[C@@]4(C)[C@H](c5ccoc5)OC(=O)[C@H]5O[C@]543)[C@]21C (stereo not given in full) : ____
[reply] 0.971

[ask] State the recorded normalized growth for this entry: C1N2CN3CN1CN(C2)C3
[reply] 0.989

* * *

# Run Description: chemical genetic growth profiling, strain panel (AID 1159580);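 further: tested at 20 µM; growth read once vehicle control cultures reached saturation at 30 °C; 1 = growth at the plate median or of vehicle wells; lower values mean less growth of the strain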
# Test Parameters: S. cerevisiae deletion strains, growth OD, locus YNL271C, strain bni1, stronger effect = lower value
In all, about 5,500 compounds went through this assay and about 2,000 (36%) were called active. About 18% were inconclusive and are not listed. This is one part of the list.
Experimental Endpoint: normalized growth
Keep it simple and answer with nothing but the number.

[ask] Give the measured normalized growth of Clc1ccc(COC(Cn2ccnc2)c2ccc(Cl)cc2Cl)c(Cl)c1 (stereo unspecified) .
[reply] 0.0673

[ask] # input molecule: CC1CCC(NC(=O)N(CCCl)N=O)CC1 (stereo unspecified) ; wanted: its normalized growth
[reply] 0.93

[ask] Fill in: normalized growth of NCCCCNCCCN is ___
[reply] 0.977

[ask] normalized growth lookup needed for Cc1nnc(NS(=O)(=O)c2ccc(N)cc2)s1 , thanks.
[reply] 1

[ask] // returns reported normalized growth for input CC(C)(S)[C@@H](N)C(=O)O
[reply] 0.988

[ask] Quick one: normalized growth for CC(=O)OC1CC(O)C(C)(C)C2CC(=O)C3(C)C(CCC4(C)C(c5ccoc5)OC(=O)C5OC543)C12C (stereo unspecified) ?
[reply] 0.983

[ask] Consider the molecule O=C(O)C(O)C(O)C(=O)O (stereo unspecified) and give its measured normalized growth.
[reply] 0.992

[ask] Data request, read-out normalized growth, for Clc1ccc(CSC(Cn2ccnc2)c2ccc(Cl)cc2Cl)cc1 (stereo unspecified)
[reply] 0.0682

[ask] Need normalized growth, item CC(=O)N[C@@H](CCC(=O)O)C(=O)O
[reply] 1.02

[ask] For NCC[C@@H](O)C(=O)N[C@@H]1C[C@H](N)[C@@H](O[C@H]2O[C@H](CN)[C@@H](O)[C@H](O)[C@H]2O)[C@H](O)[C@H]1O[C@H]1O[C@H](CO)[C@@H](O)[C@H](N)C1O (stereo partly specified) , what is its reported normalized growth?
[reply] 1.02

[ask] # query: normalized growth of entry Clc1ccc(COC(Cn2ccnc2)c2ccc(Cl)cc2Cl)cc1 (stereo unspecified)
[reply] 0.0793

* * *

# Run Description: chemical genetic growth profiling, strain panel (AID 1159580);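 further: tested at 20 µM; growth read once vehicle control cultures reached saturation at 30 °C; 1 = growth at the plate median or of vehicle wells; lower values mean less growth of the strain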
# Test Parameters: S. cerevisiae deletion strains, growth OD, locus YFL009W, strain cdc4, stronger effect = lower value
In all, about 5,500 compounds went through this assay and about 2,000 (36%) were called active. Inconclusive results (about 18%) are left out. The list shows a part of the results.
Give normalized growth for every item shown.
I only need the number, thanks.

[ask] So what does the record say about normalized growth for CC(C)(C)C1=C(C#N)C(c2c(Cl)cccc2Cl)C(C#N)=C(N)O1 (stereo not given) ?
[reply] 0.98

[ask] Quick check: normalized growth of CCOC(=O)c1sc(S(C)=NC(=O)Nc2ccc(Cl)cc2)c2c1CCC=C2 (stereo not given) ?
[reply] 0.973

[ask] Requested read-out: normalized growth. Entry: O=C(Nc1cc(Cl)ccc1O)c1ccccc1CSc1ccc(Cl)cc1
[reply] 0.981

[ask] Find the recorded normalized growth belonging to O=S(=O)(NCc1ccc(C(F)(F)F)cc1)c1cc(Br)c(Br)s1 and report it.
[reply] 0.979

[ask] What does the record list as normalized growth for O=S(=O)(NCc1ccc(C(F)(F)F)cc1)c1cccc(C(F)(F)F)c1 ?
[reply] 0.974

[ask] normalized growth lookup needed for O=C(Nc1cc(C(F)(F)F)cc(C(F)(F)F)c1)C(Cl)(Cl)Cl , thanks.
[reply] 0.951

[ask] # query: normalized growth of entry FC(F)(F)c1cc(NC(=S)SCCSC(=S)Nc2cc(C(F)(F)F)cc(C(F)(F)F)c2)cc(C(F)(F)F)c1
[reply] 1

[ask] Quick check: normalized growth of Cc1ccccc1/C=C/c1c[nH]c2ccccc12 ?
[reply] 0.945

[ask] # lookup: normalized growth of N#CC(C#N)=Cc1c(-c2ccccc2Cl)[nH]c2ccccc12
[reply] 0.955

[ask] Item Nc1ccccc1C(=O)Nc1cc(C(F)(F)F)cc(C(F)(F)F)c1 has what recorded normalized growth?
[reply] 0.968

* * *

Exercise: for every item that follows, state its recorded normalized growth.
# Run Description: chemical genetic growth profiling, strain panel (AID 1159580);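 further: tested at 20 µM; growth read once vehicle control cultures reached saturation at 30 °C; 1 = growth at the plate median or of vehicle wells; lower values mean less growth of the strain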
# Test Parameters: S. cerevisiae deletion strains, growth OD, locus YKL160W, strain elf1, stronger effect = lower value
About 2,000 (36%) of roughly 5,500 compounds were called active. Another 18% or so got no clear call; they are omitted. The list shows a part of the results.
No unit in the answer, only the number.

[ask] What value of normalized growth has been recorded for this entry: CC(O)(P(=O)(O)O)P(=O)(O)O
[reply] 1.03

[ask] Query (molecule): C[C@]12CCC3c4ccc(OC(=O)c5ccccc5)cc4CCC3C1CCC2=O (some centres undefined) ; field requested: normalized growth
[reply] 1.01

[ask] Item Cc1oncc1C(=O)Nc1ccc(C(F)(F)F)cc1 has what recorded normalized growth?
[reply] 0.96

[ask] Give its normalized growth value. Item: NC(=O)CS(=O)C(c1ccccc1)c1ccccc1 (centres undefined)
[reply] 1.05

[ask] Quick one: normalized growth of C[C@]12C=CC(=O)C=C1CCC1C2[C@@H](O)C[C@@]2(C)C1CC[C@]2(O)C(=O)CO (some centres undefined) ?
[reply] 0.981

[ask] Endpoint output: normalized growth of CCN1C[C@@]2(COC)C3[C@@H](OC)[C@H]4[C@@H]1[C@]3(C(OC)C[C@H]2O)C1C[C@@]2(O)[C@H](OC(=O)c3ccccc3)C1[C@]4(OC(C)=O)[C@@H](O)[C@@H]2OC (some centres undefined) . Value?
[reply] 0.963

[ask] Quick one: normalized growth of CC(=O)N[C@@H](CCC(=O)O)C(=O)O ?
[reply] 1.04

[ask] Reported normalized growth for C[C@]12CCC3c4ccc(O)cc4CCC3C1CCC2=O (some centres undefined) : what is it?
[reply] 0.994

[ask] What does the record list as normalized growth for C=C1C(=O)[C@]23[C@H](O)[C@H]1CC[C@H]2[C@@]12CO[C@]3(O)[C@H](O)[C@@H]1C(C)(C)CC[C@@H]2O ?
[reply] 1.04

[ask] What value of normalized growth has been reported for the following molecule? COc1ccc2nc(S(=O)Cc3ncc(C)c(OC)c3C)[nH]c2c1 (centres undefined)
[reply] 0.941

[ask] Returns the measured normalized growth for the input molecule. Input: CCCCCCCCCCCCCC(=O)OC1C(C)C2(O)C(C=C(CO)CC3(O)C(=O)C(C)=CC32)C2C(C)(C)C12OC(C)=O (centres undefined)
[reply] 1

[ask] // lookup normalized growth for CC1CCC(NC(=O)N(CCCl)N=O)CC1 (centres undefined)
[reply] 0.914

[ask] Return reported normalized growth; argument: COC(=O)[C@@H]1OC(=O)C2OC23[C@@]1(C)CCC1[C@@]2(C)CCC(=O)C(C)(C)C2C[C@@H](OC(C)=O)[C@]13C (some centres undefined)
[reply] 1.02

[ask] // returns reported normalized growth for input O=c1[nH]c(=O)n(C2C[C@H](O)[C@@H](CO)O2)cc1C(F)(F)F (some centres undefined)
[reply] 0.954

[ask] Request the reported normalized growth associated with NC1(C(=O)O)CC1
[reply] 1.04

[ask] Request the reported normalized growth associated with COP(=S)(OC)Oc1ccc(Sc2ccc(OP(=S)(OC)OC)cc2)cc1
[reply] 1

[ask] # query: normalized growth of entry O=NN(CCCl)C(=O)NCCCl
[reply] 0.86

[ask] // normalized growth lookup, key: COc1ccnc(CS(=O)c2nc3ccc(OC(F)F)cc3[nH]2)c1OC (centres undefined)
[reply] 1.03

[ask] Using the record for CC[C@@H]1OC(=O)C[C@@H](O)[C@H](C)[C@@H](O[C@@H]2O[C@H](C)[C@@H](O)[C@H](N(C)C)[C@H]2O)[C@@H](CCN2C[C@H](C)C[C@H](C)C2)C[C@@H](C)C(=O)/C=C/C(C)=C\[C@@H]1CO[C@@H]1O[C@H](C)[C@@H](O)[C@@H](OC)[C@H]1OC , report its normalized growth.
[reply] 0.974
